Task for the reader: assign each of the following compounds its reported Percentage of the compound remaining in rat liver microsome.
- procedureSummary: Stability in rat liver microsome
- studyConditions: with coenzyme, 2 μM, 37° C., 30 minutes
# number only, unit % dropped from output

// Percentage of the compound remaining in rat liver microsome value for `CC(C)C(=O)OCOc1ccc([N+](=O)[O-])c2cccnc12` : 0.08

The reported value for `CC(C)C(=O)N1CCC[C@H]1C(=O)OCOc1ccc([N+](=O)[O-])c2cccnc12` in terms of Percentage of the compound remaining in rat liver microsome is 3.64

Percentage of the compound remaining in rat liver microsome reported for this compound `CCC(CC)C(=O)OCOc1ccc([N+](=O)[O-])c2cccnc12` : 0.16

Percentage of the compound remaining in rat liver microsome measured on `CCCOC(=O)N1CCC[C@H]1C(=O)OCOc1ccc([N+](=O)[O-])c2cccnc12` = 0.06

Documented Percentage of the compound remaining in rat liver microsome of CC(OC(=O)C(C)C)Oc1ccc([N+](=O)[O-])c2cccnc12 (centres unmarked) : 0.01

The recorded Percentage of the compound remaining in rat liver microsome for entry `CN(CC(=O)OCc1cccnc1N(C)C(=O)OCOc1ccc([N+](=O)[O-])c2cccnc12)C(=O)C(C)(C)C` equals 0.06

The value of Percentage of the compound remaining in rat liver microsome measured for the compound `CC(C)(C)OC(=O)N[C@@H](Cc1ccccc1)C(=O)OCOc1ccc([N+](=O)[O-])c2cccnc12` turned out to be 0.01

Reported Percentage of the compound remaining in rat liver microsome for `COC(=O)CCCCC(=O)OCOc1ccc([N+](=O)[O-])c2cccnc12` was 0.05
